ASSAY_TARGET: JAK3 (Homo sapiens, UniProt P52333)
Construct: endogenous in cells; mixed Molt4/Ramos lysate 1:2
Sequence (P52333 whole entry): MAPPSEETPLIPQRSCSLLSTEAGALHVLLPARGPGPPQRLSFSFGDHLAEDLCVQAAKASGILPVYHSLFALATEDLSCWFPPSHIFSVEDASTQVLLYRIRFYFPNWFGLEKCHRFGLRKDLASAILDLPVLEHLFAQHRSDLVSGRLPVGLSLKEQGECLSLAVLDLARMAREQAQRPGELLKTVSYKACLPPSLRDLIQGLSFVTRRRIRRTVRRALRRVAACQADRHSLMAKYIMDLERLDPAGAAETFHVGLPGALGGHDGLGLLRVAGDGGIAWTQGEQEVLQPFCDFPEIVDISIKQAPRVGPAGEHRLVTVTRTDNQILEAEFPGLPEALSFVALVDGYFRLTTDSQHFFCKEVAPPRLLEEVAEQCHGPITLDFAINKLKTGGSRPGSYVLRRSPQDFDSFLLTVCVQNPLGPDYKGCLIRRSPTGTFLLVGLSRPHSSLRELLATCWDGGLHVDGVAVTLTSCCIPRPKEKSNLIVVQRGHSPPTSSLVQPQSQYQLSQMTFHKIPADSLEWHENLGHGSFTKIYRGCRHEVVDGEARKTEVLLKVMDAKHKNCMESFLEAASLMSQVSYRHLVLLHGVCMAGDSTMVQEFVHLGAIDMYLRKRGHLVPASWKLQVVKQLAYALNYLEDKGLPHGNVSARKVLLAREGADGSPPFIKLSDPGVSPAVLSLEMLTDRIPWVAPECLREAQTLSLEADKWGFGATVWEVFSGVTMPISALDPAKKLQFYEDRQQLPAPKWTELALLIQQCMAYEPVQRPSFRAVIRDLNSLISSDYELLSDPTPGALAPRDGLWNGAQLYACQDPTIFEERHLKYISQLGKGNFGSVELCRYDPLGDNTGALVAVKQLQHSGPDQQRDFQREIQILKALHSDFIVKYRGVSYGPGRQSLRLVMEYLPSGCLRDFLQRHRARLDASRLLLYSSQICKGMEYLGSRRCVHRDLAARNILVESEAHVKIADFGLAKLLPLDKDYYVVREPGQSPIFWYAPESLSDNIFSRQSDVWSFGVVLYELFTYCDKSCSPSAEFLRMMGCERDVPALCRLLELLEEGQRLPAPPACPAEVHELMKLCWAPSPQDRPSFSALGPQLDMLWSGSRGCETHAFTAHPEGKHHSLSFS
METHOD_SUMMARY: Kinobeads assay, JAK3 (competition binding in cell lysate, dot blot detection)
CONDITION_INFO: mixed Molt4/Ramos lysate
Description: The compounds of the present invention as described in the previous examples were tested in a Kinobeads™ assay as described for ZAP-70 (WO-A 2007/137867). […] Bound proteins were then eluted and the presence of JAK2 and JAK3 was detected and quantified using specific antibodies in a dot blot procedure and the Odyssey infrared detection system. Dose response curves for individual kinases were generated and IC50 values calculated. […]
pIC50: −log10 of the molar value.
QUANTITY_KIND: pIC50

molecule="COCCC(=O)N1CCCC(Cn2ncc3cnc(Nc4cnn(C)c4)nc32)C1 (centres unmarked)" quantity_kind=pIC50 value_measured="6.00 to 7.00"

Need pIC50 for each of these molecules.
1. CS(=O)(=O)CCC(=O)N1CCCC(Cn2ncc3cnc(Nc4cnn(CC(F)F)c4)nc32)C1 (centres unmarked)
2. CC(C)NC(=O)CN1CCCC(Cn2ncc3cnc(Nc4cnn(C)c4)nc32)C1 (centres unmarked)
3. Cn1cc(Nc2ncc3cnn(CC4CCCN(S(C)(=O)=O)C4)c3n2)cn1 (centres unmarked)
4. Cn1cc(Nc2ncc3cnn(CC4CCCN(C(=O)C5CCOCC5)C4)c3n2)cn1 (centres unmarked)
5. Cn1cc(Nc2ncc3cnn(C4CCCCCC4)c3n2)cn1
6. Cn1cc(Nc2ncc3cnn(CC4CCN(CCC#N)C4)c3n2)cn1 (centres unmarked)
7. Cn1cc(Nc2ncc3cnn(CC4CCCN(C(=O)OCCF)C4)c3n2)cn1 (centres unmarked)

["6.00 to 7.00", "6.00 to 7.00", "> 7.00", "6.00 to 7.00", "> 7.00", "> 7.00", "6.00 to 7.00"]
